// data source = patent US20170342107A1

So I've got a bunch of binders here, and I need their Agonist, % of NDP-MSH maximal response values.
Molecular target: mouse melanocortin-5 receptor (mouse, UniProt P41149 1-325)
Sequence (P41149 whole entry): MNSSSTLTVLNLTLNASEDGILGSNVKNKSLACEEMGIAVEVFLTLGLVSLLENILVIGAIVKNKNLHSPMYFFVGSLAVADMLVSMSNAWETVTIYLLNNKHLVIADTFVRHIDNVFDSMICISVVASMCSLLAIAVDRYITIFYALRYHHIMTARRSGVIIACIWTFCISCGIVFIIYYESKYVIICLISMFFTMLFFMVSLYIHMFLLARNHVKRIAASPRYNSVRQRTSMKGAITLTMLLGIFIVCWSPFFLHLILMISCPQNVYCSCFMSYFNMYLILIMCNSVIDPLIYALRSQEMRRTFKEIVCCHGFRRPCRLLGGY
Test: cell-based or functional assay
Square brackets hold non-standard residues; d marks the D form. Bip = N[C@@H](Cc1ccc(-c2ccccc2)cc1)C(=O)O; dPhe(4-I) = N[C@H](Cc1ccc(I)cc1)C(=O)O; 2Nal = N[C@@H](Cc1ccc2ccccc2c1)C(=O)O; d2Nal = N[C@H](Cc1ccc2ccccc2c1)C(=O)O; Bta = N[C@@H](Cc1csc2ccccc12)C(=O)O; Tic = O=C(O)[C@@H]1Cc2ccccc2CN1
Enter your answer as a number in % @ 100 µM; do not include the unit.

Agonist, % of NDP-MSH maximal response lookup needed for Ac-[2Nal]R[dPhe(4-I)]F-NH2 (SMILES CC(=O)N[C@@H](Cc1ccc2ccccc2c1)C(=O)N[C@@H](CCCNC(=N)N)C(=O)N[C@H](Cc1ccc(I)cc1)C(=O)N[C@@H](Cc1ccccc1)C(N)=O) [SKY4-48-32, Ac-Nal(2')-Arg-(pI)DPhe-Phe-NH2] , thanks. 49

Agonist, % of NDP-MSH maximal response lookup needed for Ac-[2Nal]R[dPhe(4-I)][d2Nal]-NH2 [SKY4-48-48, Ac-Nal(2')-Arg-(pI)DPhe-DNal(2')-NH2] , thanks. 40

Agonist, % of NDP-MSH maximal response lookup needed for Ac-HR[dPhe(4-I)][d2Nal]-NH2 [SKY4-48-43, Ac-His-Arg-(pI)DPhe-DNal(2')-NH2] , thanks. 47

Agonist, % of NDP-MSH maximal response lookup needed for Ac-FR[dPhe(4-I)][2Nal]-NH2 [SKY4-48-39, Ac-Phe-Arg-(pI)DPhe-Nal(2')-NH2] , thanks. 61

Agonist, % of NDP-MSH maximal response lookup needed for Ac-[Bta]R[dPhe(4-I)][d2Nal]-NH2 [SKY4-48-45, Ac-3Bal-Arg-(pI)DPhe-DNal(2')-NH2] , thanks. 41

Agonist, % of NDP-MSH maximal response lookup needed for Ac-[Bip]R[dPhe(4-I)]F-NH2 (SMILES CC(=O)N[C@@H](Cc1ccc(-c2ccccc2)cc1)C(=O)N[C@@H](CCCNC(=N)N)C(=O)N[C@H](Cc1ccc(I)cc1)C(=O)N[C@@H](Cc1ccccc1)C(N)=O) [SKY4-48-28, Ac-Bip-Arg-(pI)DPhe-Phe-NH2] , thanks. 69

Agonist, % of NDP-MSH maximal response lookup needed for Ac-[Tic]R[dPhe(4-I)][d2Nal]-NH2 [SKY4-48-46, Ac-Tic-Arg-(pI)DPhe-DNal(2')-NH2] , thanks. 74
